Data credit: paper PMC3608651

molecular target: HLA-A*68:01 (Homo sapiens, UniProt P04439, A269V/D185E/E176V/E277Q/E87N/F33Y/G231S/I121M/I166T/I218V/L180W/L300P/L318F/N151K/P208A/P217A/Q86R/R169H/T345S); format: binding; details: percent relative the binding of positive control peptide KTGGPIYKR; duplicated experiments; positive binder >40%
For each record, check the reported Bind A*68:01: if it is below 10% write 1.0, else write 0.0.

Reference set (5 entries):
chain | discrete_label
EAAASAIQG [Rv3875_12–20] | 0.0
WGGSGSEAY [Rv3875_43–51] | 1.0
ATELNNALQ [Rv3875_62–70] | 1.0
QQWNFAGIE [Rv3875_4–12] | 0.0
IQGNVTSIH [Rv3875_18–26] | 0.0

Confirm or reject: Bind A*68:01 of QQKWDATAT [Rv3875_55–63] lies strictly below 10%
1.0

Lab note: confirm whether the reported Bind A*68:01 for this sequence is below 10%, equality not counting. sequence: ATATELNNA [Rv3875_60–68]
1.0

Please determine if AAWGGSGSE [Rv3875_41–49] is below 10% in terms of Bind A*68:01.
0.0

Find out if reported Bind A*68:01 for LLDEGKQSL [Rv3875_28–36] is less than 10%
1.0

Does the reported Bind A*68:01 of LTKLAAAWG [Rv3875_36-44] stay below 10%?
0.0

Quick check: Bind A*68:01 of VQQKWDATA [Rv3875_54–62] under 10%?
1.0

Please determine if EAYQGVQQK [Rv3875_49–57] is below 10% in terms of Bind A*68:01.
0.0

hey, is Bind A*68:01 for AIQGNVTSI [Rv3875_17-25] lower than 10% or not?
0.0

I'd appreciate it if you could check whether NLARTISEA [Rv3875_71–79] has Bind A*68:01 smaller than 10%.
1.0

Is the reported Bind A*68:01 for SAIQGNVTS [Rv3875_16–24] strictly below 10%?
0.0

* * *

Would you kindly list Bind C*07:01 for each of these sequences?
biological target: HLA-C*07:01 (Homo sapiens, UniProt P10321, K90N/S123Y); assay type: binding; settings: percent relative the binding of positive control peptide KYFDEHYEY; duplicated experiments; positive binder >40%
Give bare numbers, in %.

Past entries and their recorded results:
chain | endpoint_name | quantity_unit | val
LQNLARTIS [Rv3875_69–77] | Bind C*07:01 | % | 3
EAAASAIQG [Rv3875_12–20] | Bind C*07:01 | % | 0
AYQGVQQKW [Rv3875_50–58] | Bind C*07:01 | % | 0
SAIQGNVTS [Rv3875_16–24] | Bind C*07:01 | % | 12

Shifting focus to the sequence that follows.
Bind C*07:01 lookup needed for GVQQKWDAT [Rv3875_53–61] , thanks.
9

* * *

molecular target: HLA-A*02:01 (Homo sapiens, UniProt P04439, D140Y/D185E/D98H/E176V/E277Q/G131W/G231S/I119V/I121R/I166T/I218V/L300P/L318F/N151K/N90K/P208A/P217A/Q86G/Q94H/R138H/R169H/T345S); assay type: binding; details: time points 0-8 h; time when 50% of peptide has dissociated
Rule: Condition met for O-rate A*02:01 (t1/2) not less than 1 h, Condition not met for anything less.

Past entries and their recorded results:
substance | discrete_label
AMKGDLQSS | Condition met
IQGNVTSIH [Rv3875_18–26] | Condition not met
AMLDHAGDM [Rv0288_10–18m2] | Condition met

Say whether VQQKWDATA [Rv3875_54–62] shows O-rate A*02:01 (t1/2) of 1 h or more.
Condition met

Quick check, O-rate A*02:01 (t1/2) >= 1 h? `AAYHPQQFI`
Condition met

Item IMYNYPTML [Rv0288_4–12m1] with O-rate A*02:01 (t1/2) of 1 h or above?
Condition met

API: above_or_equal(metric=O-rate A*02:01 (t1/2), cutoff=1 h) for item QIMYNYPTM [Rv0288_3–11m1]
Condition not met

Please tell me: is the substance `MAGSSAMIL` at or over 1 h in terms of O-rate A*02:01 (t1/2)?
Condition not met

hey, is O-rate A*02:01 (t1/2) for this one >= 1 h? `GLSIVMPVG`
Condition met

Check if O-rate A*02:01 (t1/2) >= 1 h (inclusive). Item: LLDEGKQSL [Rv3875_28–36]
Condition met

* * *

biological target: HLA-B*58:01 (Homo sapiens, UniProt P01889, A329T/C349S/D201E/D98Y/E176V/E187L/E204Q/E69T/G107R/I218V/I90N/K202T/L105A/L119I/N104I/N87E/Q89R/Q94S/R106L/R155S/R180L/R86G/S101N/S121R/S35A/S48A/T118I/V127L/V306I/V36M/Y140S/Y91M); assay type: binding
endpoint_name: Aff B*58:01 (ED50)

Would you mind giving Aff B*58:01 (ED50) for every substance in the list below?
1. RAVKPT GSA
2. KAGCQTYKW
3. YAGSLSALL
4. SMAGSSAMI
5. QT YKWETFL

1: 5E -07 M; 2: 3E -08 M; 3: 3E -08 M; 4: 2E -07 M; 5: 2E -08 M

* * *

So I've got a bunch of substances here, and I need their Aff C*07:01 (ED50) values.
molecular target: HLA-C*07:01 (Homo sapiens, UniProt P10321, K90N/S123Y); assay: affinity assay (ED50); format: binding
One number for each entry, in E -08 M.

substance | endpoint_name | val
FVRSSNLKF | Aff C*07:01 (ED50) | 2

Okay, next one:
Entry `MAGSSAMIL` : reported Aff C*07:01 (ED50) = ?
1

* * *

molecular target: HLA-C*07:01 (Homo sapiens, UniProt P10321, K90N/S123Y); format: binding; conditions: percent relative the binding of positive control peptide […]; duplicated experiments; positive binder >40%
Use Condition met when the recorded Bind C*07:01 is no lower than 10%; use Condition not met when it is lower.

Solved cases (2 shown):
substance | discrete_label
WGAQLNAMK | Condition not met
FIYAGSLSA | Condition met

Moving on to the next substance.
# check: Bind C*07:01 of `GANIPAEFL` is greater than or equal to 10%
Condition not met

* * *

For each record, write down the corresponding Bind A*24:02.
molecular target: HLA-A*24:02 (Homo sapiens, UniProt P04439, D101N/D140Y/D185E/E176V/E190D/F33S/G103R/G107R/I119L/I121M/I306V/K335N/L105A/L180Q/L300P/N151K/N90K/Q86E/Q94H/R106L/R138H/R89G/T104I/T345S/V100E/W191G/Y123F); assay type: binding; details: percent relative the binding of positive control peptide […]; duplicated experiments; positive binder >40%
# include the unit after the value

Below, 5 substances whose answers are already recorded.
substance | val
VQFQSGGNN | 0%
NGT HSWEYW | 42%
SALLDPSQG | 0%
AQLNAMKGD | 29%
SSFYSDWYS | 0%

List Bind A*24:02 for every entry below, keeping the order given.
1. WVYCGNGTP
2. DW YSPACGK
3. AMKGDLQSS

["0%", "0%", "42%"]

* * *

molecular target: HLA-A*30:01 (Homo sapiens, UniProt P04439, D140H/D185E/E176W/F33S/G80R/H175R/K168Q/R138E/R41S); format: binding; settings: percent relative the binding of positive control peptide […]; duplicated experiments; positive binder >40%
endpoint_name: Bind A*30:01 (%)
Give bare numbers, in %.

Illustrative cases are given below, each with its answer.
substance | endpoint_name | quantity_unit | val
PNGTHSWEY | Bind A*30:01 | % | 0
GGNNSPAVY | Bind A*30:01 | % | 0
SNLKFQDAY | Bind A*30:01 | % | 0
YSDWYSPAC | Bind A*30:01 | % | 15
LAAYHPQQF | Bind A*30:01 | % | 0
PSSDPAW ER | Bind A*30:01 | % | 0

Each substance below has a recorded value; state its Bind A*30:01.
1. SQGMGPSLI
2. AGSSAMILA
3. GLSMAGSSA
4. MAGSSAMIL

11
0
0
0

Below are some substances; for each one, tell me its Bind A*30:01.
1. MW GPSSDPA
2. YQSGLSIVM
3. FLENFVRSS
4. AQLNAMKGD
5. FIYAGSLSA
6. PVGGQSSFY
7. SAMILAAYH

1. 0
2. 27
3. 0
4. 0
5. 0
6. 0
7. 0

# per-item lookup of Bind A*30:01; items listed below
1. IPAEFLENF
2. VRSSNLKFQ
3. MGRDIKVQF
4. LKFQDAYNA
5. AMGDAGGYK

1: 0; 2: 0; 3: 0; 4: 0; 5: 28

Hi there! I need Bind A*30:01 for each item below, if you can.
1. ELGGANIPA
2. KAGCQTYKW
3. MILAAYHPQ
4. FVRSSNLKF
5. SSNLKFQDA

[0, 13, 0, 0, 0]

Go through the list and state Bind A*30:01 for each entry.
1. AGGYKAADM
2. QLNAMKGDL

1. 0
2. 10
